assayOverview: modulators of S6 phosphorylation in cells, primary screen, cell-based, A549, cytoblot, luminescence, serum-stimulated (AID 1158);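 also: serum-stimulated A549 lung adenocarcinoma cells; signal is phosphorylated S6 detected by cytoblot immunostaining with HRP secondary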
studyConditions: A549 phospho-S6 cytoblot, 5 h, higher = more signal
Can you tell me z-score for the items I'm about to list?
Give bare numbers.

Known results for compounds:
CCOC(=O)c1ccc(NC(=O)O[C@H]2[C@H](OC(=O)Nc3ccc4c(c3)OCO4)[C@H](OC(=O)Nc3ccc4c(c3)OCO4)[C@@H](OC)O[C@@H]2CO)cc1 -0.535
CCOC(=O)C[C@H]1[C@H](OC(=O)c2cc3ccccc3oc2=O)[C@@H](NC(=O)c2ccc(-c3ccccc3)cc2)c2cc(OCCCO)ccc2N1C(=O)c1ccc2ccccc2n1 -0.577

We next turn to a different compound, shown below.
### Prompt Please report the recorded z-score for COc1ccc([Si](C)(C)[C@H]2[C@H](CCn3cc([C@H](O)c4ccccc4)nn3)O[C@@]3(C(=O)N(Cc4ccc(N5C(=O)c6cccc7cccc5c67)cc4)c4ccccc43)[C@@H]2C)cc1 .
### Response 0.243

* * *

assayOverview: basal RPMI8226 viability, no added stimulus, profiling panel, cell-based, calcein-AM fluorescence, 48 h, PK04 Diversity Set (AID 1166);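 also: cells grown under basal conditions without added stimulus; test concentration not given here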
studyConditions: RPMI8226 myeloma viability, higher = more signal
assayReadout: z-score
Give bare numbers.

molecule	recordedValue
O=C1N(Cc2ccccc2)c2ccccc2[C@@H]2OC(c3ccc(OCCCO)cc3)=N[C@]12Cc1ccccc1	-4.42
COCCCNC(=O)[C@]1(CCS(=O)(=O)c2ccccc2)N=C(c2ccc(OCCCO)cc2)O[C@@H]1c1ccccc1N=[N+]=[N-]	-0.311
COC(=O)c1c2oc(c1C(=O)OC)C(=O)N(Cc1ccccc1)Cc1cn(nn1)C[C@H](Cc1ccccc1)NC(=O)N[C@H](CO)CC2	1.75
[N-]=[N+]=NCc1ccccc1[C@H]1OC(c2ccc(OCCCO)cc2)=N[C@@]1(CCS(=O)(=O)c1ccccc1)C(=O)N1CCCCC1	-0.946
CC(C)C(=C=CC[C@H](O)c1cccc(OCCO)c1)C[C@H](O)c1cc(Cl)cc(Cl)c1O	0.205
CC(c1ccccc1)C(O)C1C=CC2C(=O)N(c3ccccc3)C(=O)C2N1Nc1ccc([N+](=O)[O-])cc1 (centres undefined)	-0.129
CN(C)CCCNC(=O)[C@@]1(c2ccc([N+](=O)[O-])cc2)CC(=O)N(CC23CC4CC(CC(C4)C2)C3)[C@@H]1c1ccc(CO)cc1I	-4.15
CCOc1cc(C(O)C2C=CC3C(=O)N(C)C(=O)C3N2Nc2ccccc2)ccc1O (centres undefined)	-0.429
C=CCOC(=O)[C@H]1[C@@H]2C(=O)O[C@@H](c3ccccc3)[C@@H](c3ccccc3)N2[C@@H](c2ccc(OCCOC(=O)[C@@H]3C[C@@H]4C(=O)N[C@@H](CCCCNC(C)=O)C(=O)N4[C@@H]3c3ccc(O)cc3)cc2)[C@]12C(=O)Nc1ccc(I)cc12	-0.957
CCCCO[C@H]1C[C@H]2C(I)=C[C@@H]1C(=O)[C@]21CO1	-1.16

# batch size: 2; output z-score per entry
1. C=CCC(OC(C)=O)[C@@H]1[C@@H](N(Cc2ccc(-c3cccc(C(F)(F)F)c3)o2)C(=O)c2ccc(-c3ccccc3)cc2)c2cc(OCCCO)ccc2N1C(=O)c1ccc2ccccc2n1 (some centres undefined)
2. CCOC(=O)C[C@H]1[C@H](OC(=O)c2cc3ccccc3oc2=O)[C@@H](NC(=O)Cc2ccc(OC)cc2)c2cc(OCCCO)ccc2N1C(=O)c1ccc2ccccc2n1

### Response
1. 0.458
2. 0.865

# batch size: 2; output z-score per entry
1. COC(=O)c1nc2oc1CC[C@@H](CO)NC(=O)N(C)Cc1cnnn1C[C@H](Cc1ccccc1)NC2=O
2. O[C@@H](Cc1ccccc1)[C@@H](/C=C/C1CC1)N(CC#Cc1ccccc1)Cc1cccc(Cl)c1

### Response
[0.529, -0.0958]
